These measurements were taken from ChEMBL document CHEMBL3124867.

# test_target: Cytochrome P450 3A4 (Homo sapiens, UniProt P08684)
# Sequence (P08684 whole entry): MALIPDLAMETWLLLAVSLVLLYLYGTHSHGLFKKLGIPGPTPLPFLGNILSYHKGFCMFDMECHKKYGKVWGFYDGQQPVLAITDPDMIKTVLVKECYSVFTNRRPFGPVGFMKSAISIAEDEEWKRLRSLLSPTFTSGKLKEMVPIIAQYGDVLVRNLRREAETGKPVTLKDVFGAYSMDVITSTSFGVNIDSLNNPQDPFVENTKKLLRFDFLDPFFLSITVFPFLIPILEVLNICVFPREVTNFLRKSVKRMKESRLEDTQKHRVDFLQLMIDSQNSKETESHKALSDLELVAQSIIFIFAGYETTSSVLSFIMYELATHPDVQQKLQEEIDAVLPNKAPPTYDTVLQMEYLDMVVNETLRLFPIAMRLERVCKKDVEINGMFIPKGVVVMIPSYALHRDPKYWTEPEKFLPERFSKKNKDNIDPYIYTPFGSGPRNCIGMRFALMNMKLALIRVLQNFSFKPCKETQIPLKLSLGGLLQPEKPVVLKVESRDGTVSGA
assay_endpoint: IC50

Identify measured IC50 obtained with Cytochrome P450 3A4 (Homo sapiens, UniProt P08684) for `O=C(c1nn2c(C(F)(F)F)cc(C3CC3)cc2c1Cl)N1CCN([C@H]2C[C@@H]3C[C@@H]3[C@@H]2O)C(=O)C1` .
> 20 µM

* * *

# procedure_details: Volume of distribution at steady state in cynomolgus monkey at 1 mg/kg, iv by LC/MS/MS analysis
# Type: ADME, organism-based, Macaca fascicularis
# Design: dose 1 mg/kg, route intravenous
# reported_conditions: in vivo, read-out: Vdss
assay_endpoint: Vd (L/kg)
Answers are plain numbers, in L/kg.

For `O=C(c1nn2c(C(F)(F)F)cc(C3CC3)cc2c1Cl)N1CCN([C@H]2C[C@@H]3C[C@@H]3[C@@H]2O)C(=O)C1` , write its Vd.
0.7

* * *

# procedure_details: Half life in CD-1 mouse at 1 mg/kg, iv by LC/MS/MS analysis
# Format: ADME, organism-based
# Set-up: dose 1 mg/kg, route intravenous
# reported_conditions: in vivo
assay_endpoint: half-life (min)
One number for each entry, in min.

For `O=C(c1nn2c(C(F)(F)F)cc(C3CC3)cc2c1Cl)N1CCN([C@H]2C[C@@H]3C[C@@H]3[C@@H]2O)C(=O)C1` , write its half-life.
24

* * *

# procedure_details: Plasma protein binding in CD-1 mouse at 5 uM after 4 hrs by rapid equilibrium dialysis method
# Type: ADME, cell-free
# reported_conditions: read-out: PPB (converted)
assay_endpoint: fraction unbound at 4 h, 5 µM

For `O=C(c1nn2c(C(F)(F)F)cc(C3CC3)cc2c1Cl)N1CCN([C@H]2C[C@@H]3C[C@@H]3[C@@H]2O)C(=O)C1` , write its fraction unbound at 4 h, 5 µM.
0.03

* * *

# procedure_details: Clearance in CD rat at 1 mg/kg, iv by LC/MS/MS analysis
# Format: ADME, organism-based
# Set-up: dose 1 mg/kg, route intravenous
# reported_conditions: in vivo
Kindly supply the reported clearance values for the records listed here.
Give bare numbers, in mL/min/kg.

smiles_code: O=C(c1nn2c(C(F)(F)F)cc(C3CC3)cc2c1Cl)N1CCN([C@@H]2C[C@H]3C[C@H]3C2)C(=O)C1
clearance / mL/min/kg: 70

Turning now to a further molecule:
For `O=C(c1nn2c(C(F)(F)F)cc(C3CC3)cc2c1Cl)N1CCN([C@H]2C[C@@H]3C[C@@H]3[C@@H]2O)C(=O)C1` , write its clearance.
25

* * *

# Tested on: Hepatitis C virus
# procedure_details: Antiviral activity against Hepatitis C virus genotype 1a infected in human HuH7 cells after 48 hrs by luciferase reporter gene assay
# Format: functional, organism-based, Hepacivirus hominis
# reported_conditions: subtype 1a, Huh-7, 48 h
assay_endpoint: EC50 (nM)
One number for each entry, in nM.

smiles_code: Cn1c(C(=O)N2CCN([C@H]3CC[C@H](O)CC3)C(=O)C2)nc2c(C(F)(F)F)cc(C3CC3)cc21
unit_abbreviation: nM
assay_result: 0.5

Hey, can you go through the list below and give me EC50 for every item?
1. O=C(c1oc2c(C(F)(F)F)cc(C3CC3)cc2c1Cl)N1CCN([C@H]2CC[C@H](O)CC2)C(=O)C1
2. O=C(c1nn2c(C(F)(F)F)cc(C3CC3)cc2c1Cl)N1CCN([C@@H]2C[C@@H]3C[C@@H]3[C@@H]2O)C(=O)C1
3. O=C(c1nn2c(C(F)(F)F)cc(C3CC3)cc2c1Cl)N1CCC(N2CCOC2=O)CC1
4. O=C(c1nc2c(C(F)(F)F)cc(C3CC3)cn2c1Cl)N1CCN([C@@H]2C[C@H]3C[C@H]3C2)C(=O)C1
5. O=C(c1nc2c(C(F)(F)F)cc(C3CC3)cn2c1Cl)N1CCN(C(=O)[C@H]2C[C@H](O)C2)CC1
6. O=C(c1nc2c(C(F)(F)F)cc(C3CC3)cn2c1Cl)N1CCC(N2CCOC2=O)CC1
7. O=C(c1nn2c(C(F)(F)F)cc(C3CC3)cc2c1Cl)N1CCN([C@@H]2C[C@H]3C[C@H]3[C@H]2O)C(=O)C1

1. 0.09
2. 95
3. 2
4. 1.4
5. 6.3
6. 8.3
7. 4
